Species on record: Rattus norvegicus
Conditions: in vivo, iv, 0.5 mg/kg
observationType: clearance (mL/min/kg)
Answers are plain numbers, in mL/min/kg.

[[record]]
compound = "COc1cc(C(O)CN2CCN(CCc3ccc4c(c3C)COC4=O)CC2)ccc1C#N (stereo not drawn)"
unitabbrev = "mL/min/kg"
reportedmeasurement = 40

[[record]]
compound = "COc1cc(C(O)CN2CCN(CCc3ccc4c(c3C)COC4=O)CC2)ncc1C#N (stereo not drawn)"
unitabbrev = "mL/min/kg"
reportedmeasurement = 40


Lab book: clearance of COc1cc(CCN2CCN(CC(O)c3ccc4c(c3C)COC4=O)CC2)ccc1C#N (stereo not drawn) noted as 33

----------
Species: Rattus norvegicus
Conditions: in vivo, po, 2 mg/kg
I'd appreciate it if you could supply AUC/dose values for the items below.
Give bare numbers, in µM·kg·h/mg.

[[record]]
compound = "Cc1nc(C(O)CN2CCN(C[C@H](O)c3ccc4c(c3C)COC4=O)CC2)ccc1C#N (stereo in doubt; 35)"
unitabbrev = "µM·kg·h/mg"
reportedmeasurement = 1.3

[[record]]
compound = "COc1cc(CCN2CCN(CC(O)c3ccc4c(c3C)COC4=O)CC2)ccc1C#N (stereo not given)"
unitabbrev = "µM·kg·h/mg"
reportedmeasurement = 0.46

[[record]]
compound = "COc1cc(C(O)CN2CCN(CCc3ccc4c(c3C)COC4=O)CC2)ncc1C#N (stereo not given)"
unitabbrev = "µM·kg·h/mg"
reportedmeasurement = 0.74

[[record]]
compound = "O=C1OCc2cc(CCN3CCN(C(=O)Cc4ccc(-n5cnnn5)cc4)CC3)ccc21"
unitabbrev = "µM·kg·h/mg"
reportedmeasurement = 0.34


Okay, next one:
Lab book: AUC/dose of COc1cc(C(O)CN2CCN(CCc3ccc4c(c3C)COC4=O)CC2)ccc1C#N (stereo not given) noted as 0.35

----------
Assay: in vivo
Conditions: Sprague-Dawley, rat
observationType: half-life (h)
One number for each entry, in h.

Lab book: half-life of Cc1nc(C(O)CN2CCN(C[C@H](O)c3ccc4c(c3C)COC4=O)CC2)ccc1C#N (stereo in doubt; 35) noted as 1.4

----------
Test: in vivo
Conditions: Sprague-Dawley, rat
I'd appreciate it if you could supply half-life values for the items below.
Numbers only, in h.

Some entries whose results are on file:
[[record]]
compound = "COc1cc(C(O)CN2CCN(CCc3ccc4c(c3C)COC4=O)CC2)ncc1C#N (stereo not drawn)"
unitabbrev = "h"
reportedmeasurement = 1.5

[[record]]
compound = "COc1cc(C(O)CN2CCN(CCc3ccc4c(c3C)COC4=O)CC2)ccc1C#N (stereo not drawn)"
unitabbrev = "h"
reportedmeasurement = 1.3


Lab book: half-life of COc1cc(CCN2CCN(CC(O)c3ccc4c(c3C)COC4=O)CC2)ccc1C#N (stereo not drawn) noted as 0.83

----------
Species on record: Rattus norvegicus
Conditions: in vivo, iv, 1 mg/kg
observationType: clearance (mL/min/kg)
Give bare numbers, in mL/min/kg.

[[record]]
compound = "O=C1OCc2cc(CCN3CCN(C(=O)Cc4ccc(-n5cnnn5)cc4)CC3)ccc21"
reportedmeasurement = 40


Okay, next one:
Lab book: clearance of Cc1nc(C(O)CN2CCN(C[C@H](O)c3ccc4c(c3C)COC4=O)CC2)ccc1C#N (stereo in doubt; 35) noted as 25

----------
I'd appreciate it if you could supply bioavailability values for the items below.
Assay: in vivo
Details: Sprague-Dawley, rat, po, 2 mg/kg
One number for each entry, in %.

[[record]]
compound = "COc1cc(CCN2CCN(CC(O)c3ccc4c(c3C)COC4=O)CC2)ccc1C#N (centres undefined)"
reportedmeasurement = 39

[[record]]
compound = "Cc1nc(C(O)CN2CCN(C[C@H](O)c3ccc4c(c3C)COC4=O)CC2)ccc1C#N (stereo in doubt; 35)"
reportedmeasurement = 81

[[record]]
compound = "COc1cc(C(O)CN2CCN(CCc3ccc4c(c3C)COC4=O)CC2)ncc1C#N (centres undefined)"
reportedmeasurement = 78


Okay, next one:
Lab book: bioavailability of COc1cc(C(O)CN2CCN(CCc3ccc4c(c3C)COC4=O)CC2)ccc1C#N (centres undefined) noted as 37
